Tested on: U251 CNS
Assay: NCI-60 one-dose screen, 48 h (100 = growth as untreated, 0 = no growth, -100 = all killed)
Settings: 10 µM
About 83,000 compounds went through this panel and 20% of them were active in at least one assay; those are over-represented in the sample as a whole. Starred links: 1 amine or outer side, 2 acyl side, 3 side chain; linkers in the order of their positions; H or OH if unused. Positions of bridges follow the written chain, without caps; N, C: chain ends. Non-standard residues stand in square brackets, D forms with d. Residues, ends and D or L forms follow the SMILES beside them. Chains are numbered I, II in the order given. Actinocin(9to1) = Cc1c2oc3c(C)ccc(C(=O)[*:1])c3nc-2c(C(=O)[*:2])c(N)c1=O; aThr = C[C@H](O)[C@H](N)C(=O)O; NMeV = CN[C@H](C(=O)O)C(C)C; Sar = CNCC(=O)O
Decide using growth: a value greater than or equal to 20% is t, a smaller one is f.

compound=S=c1[nH]nc(Cc2ccccc2)c(=S)[nH]1 tested_system="U251 CNS" discrete_label=t
compound="Cc1c2oc3c(C)ccc(C(=O)N[C@@H]4C(=O)N[C@H](C(C)C)C(=O)N5CCC[C@H]5C(=O)N(C)CC(=O)N(C)[C@@H](C(C)C)C(=O)O[C@H]4C)c3nc-2c(C(=O)N[C@@H]2C(=O)N[C@H](C(C)C)C(=O)N3CCC[C@H]3C(=O)N(C)CC(=O)N(C)[C@@H](C(C)C)C(=O)O[C@H]2C)c(N)c1=O (I: [aThr][dV]P[Sar][NMeV] / II: [aThr][dV]P[Sar][NMeV]; ester I:1-I:C, II:1-II:C; linker I:N-II:N via Actinocin(9to1))" tested_system="U251 CNS" discrete_label=f
compound=COc1cc(C(C)(C)C)cc(OC)c1C(O)(c1c(OC)cc(C(C)(C)C)cc1OC)c1c(OC)cc(C(C)(C)C)cc1OC tested_system="U251 CNS" discrete_label=f

Request: Check if growth >= 20% (inclusive). Item: Nc1ccc2cc(Br)c3ccccc3c2c1
Response: t

Request: Check if growth >= 20% (inclusive). Item: CN1CCN(c2ccc3nc(-c4ccc5nc(-c6ccc(O)cc6)[nH]c5c4)[nH]c3c2)CC1
Response: t

Request: Check if growth >= 20% (inclusive). Item: CSc1ccc2c(c1)C(N1CCN(C)CC1)Cc1ccccc1S2 (configuration not stated)
Response: t

Request: Check if growth >= 20% (inclusive). Item: BrC/C=C/C[P+](c1ccccc1)(c1ccccc1)c1ccccc1
Response: f

====

Measured growth by item
Test system: T-47D breast
Assay: NCI-60 one-dose screen, 48 h (100 = growth as untreated, 0 = no growth, -100 = all killed)
Conditions: 10 µM
The panel holds about 83,000 compounds, 20% with a hit somewhere; the sample as a whole holds those more often. The source made the active and inactive calls. How the source made its calls: active means growth percent below 10; inactive means the rest. Starred links: 1 amine or outer side, 2 acyl side, 3 side chain; linkers in the order of their positions; H or OH if unused. Positions of bridges follow the written chain, without caps; N, C: chain ends. Non-standard residues stand in square brackets, D forms with d. Residues, ends and D or L forms follow the SMILES beside them. Chains are numbered I, II in the order given. Actinocin(9to1) = Cc1c2oc3c(C)ccc(C(=O)[*:1])c3nc-2c(C(=O)[*:2])c(N)c1=O; aThr = C[C@H](O)[C@H](N)C(=O)O; NMeV = CN[C@H](C(=O)O)C(C)C; Sar = CNCC(=O)O

// solved cases for growth follow
compound=Cc1cc(NCCCN(C)C)c2ccc3c(ccc4c(NCCCN(C)C)cc(C)nc43)c2n1 result_type=growth result="-34.2% (active)"
compound=CN(C)CCC(=O)c1c[nH]c2ccccc12 result_type=growth result="84.1% (inactive)"
compound="CSc1ccc2c(c1)C(N1CCN(C)CC1)Cc1ccccc1S2 (centres undefined)" result_type=growth result="43.3% (inactive)"
compound=CN1CCN(c2ccc3nc(-c4ccc5nc(-c6ccc(O)cc6)[nH]c5c4)[nH]c3c2)CC1 result_type=growth result="39.2% (inactive)"
compound="Cc1c2oc3c(C)ccc(C(=O)N[C@@H]4C(=O)N[C@H](C(C)C)C(=O)N5CCC[C@H]5C(=O)N(C)CC(=O)N(C)[C@@H](C(C)C)C(=O)O[C@H]4C)c3nc-2c(C(=O)N[C@@H]2C(=O)N[C@H](C(C)C)C(=O)N3CCC[C@H]3C(=O)N(C)CC(=O)N(C)[C@@H](C(C)C)C(=O)O[C@H]2C)c(N)c1=O (I: [aThr][dV]P[Sar][NMeV] / II: [aThr][dV]P[Sar][NMeV]; ester I:1-I:C, II:1-II:C; linker I:N-II:N via Actinocin(9to1))" result_type=growth result="-13.8% (active)"

Field growth (system: T-47D breast) for entry BrC/C=C/C[P+](c1ccccc1)(c1ccccc1)c1ccccc1 = 10.7% (inactive)

====

Test system: RPMI-8226 leukemia
Assay: NCI-60 one-dose screen, 48 h
Settings: 10 µM
The panel holds about 83,000 compounds, 20% with a hit somewhere; the sample as a whole holds those more often. Activity calls are given as the source filed them. How the source made its calls: active means growth percent below 10; inactive means the rest.
Thanks in advance; please answer with one of these: 1 (yes) (active), 0 (no) (inactive)

molecule=BrC/C=C/C[P+](c1ccccc1)(c1ccccc1)c1ccccc1 tested_system="RPMI-8226 leukemia" discrete_label="1 (yes)"
molecule=O=C(/C(=C/c1ccccc1)CBr)c1ccccc1 tested_system="RPMI-8226 leukemia" discrete_label="0 (no)"

Request: Kindly provide the recorded test outcome for the following molecule: N#C/C(=C1C=C/C(=N\O)C(Cl)=C\1)c1ccccc1
Response: 0 (no)

Request: Kindly provide the recorded test outcome for the following molecule: Nc1ccc2cc(Br)c3ccccc3c2c1
Response: 0 (no)

Request: Kindly provide the recorded test outcome for the following molecule: CSc1ccc2c(c1)C(N1CCN(C)CC1)Cc1ccccc1S2 (stereo not given)
Response: 0 (no)

====

System: CAKI-1 renal
Experiment: NCI-60 one-dose screen, 48 h
Conditions: 10 µM
Protocol: Growth inhibition of the CAKI-1 human tumor cell line is measured as a screen for anti-cancer activity. Cells are grown in 96 well plates and exposed to the test compound for 48 hours. Compounds are tested at a single concentration, which is 10^-5 M for most compounds. The reported endpoint is percent growth (GI% or GIPRCNT), where numbers from 0 - 100% represent growth inhibition, and numbers from -100% - 0 represent cell death. For example, a value of 40 represents 60% growth inhibition. […]
Compounds without any hit were thinned out: in the full panel of roughly 83,000, 20% have a hit. Active and inactive are the calls of the source. Rule for the calls: active = growth percent below 10; inactive = the rest.
Thanks in advance; please answer with one of these: True (active), False (inactive)

Would you please look over these solved cases?
structure_as_smiles=COc1cc(C(C)(C)C)cc(OC)c1C(O)(c1c(OC)cc(C(C)(C)C)cc1OC)c1c(OC)cc(C(C)(C)C)cc1OC discrete_label=True
structure_as_smiles=S=c1[nH]nc(Cc2ccccc2)c(=S)[nH]1 discrete_label=False

Request: Kindly provide the recorded test outcome for the following molecule: Cc1cnc(/C=N\NC(N)=S)c2cccc(N)c12
Response: True

Request: Kindly provide the recorded test outcome for the following molecule: Cc1cc(NCCCN(C)C)c2ccc3c(ccc4c(NCCCN(C)C)cc(C)nc43)c2n1
Response: True

====

System: COLO 205 colon
Experiment: NCI-60 one-dose screen, 48 h (100 = growth as untreated, 0 = no growth, -100 = all killed)
Settings: 10 µM
Compounds without any hit were thinned out: in the full panel of roughly 83,000, 20% have a hit.
Measured growth by item
Express your answer in %, writing the number without its unit.

compound=Cc1cc(NCCCN(C)C)c2ccc3c(ccc4c(NCCCN(C)C)cc(C)nc43)c2n1 units_label=% quantitative_readout=-82.8

Please look at the following compound next.
Given item CCCCCCCCCCCCCCCCCN , the value recorded as its growth is 99.8

====

Tested on: EKVX NSCLC
Assay: NCI-60 one-dose screen, 48 h (100 = growth as untreated, 0 = no growth, -100 = all killed)
Settings: 10 µM
This is part of a sample that, as a whole, favours compounds with a hit. Of some 83,000 tested, about 20% had one in any assay. Starred links: 1 amine or outer side, 2 acyl side, 3 side chain; linkers in the order of their positions; H or OH if unused. Positions of bridges follow the written chain, without caps; N, C: chain ends. Non-standard residues stand in square brackets, D forms with d. Residues, ends and D or L forms follow the SMILES beside them. Chains are numbered I, II in the order given. Actinocin(9to1) = Cc1c2oc3c(C)ccc(C(=O)[*:1])c3nc-2c(C(=O)[*:2])c(N)c1=O; aThr = C[C@H](O)[C@H](N)C(=O)O; NMeV = CN[C@H](C(=O)O)C(C)C; Sar = CNCC(=O)O
Measured growth by item
Express your answer in %, writing the number without its unit.

// solved cases for growth follow
compound=S=c1[nH]nc(Cc2ccccc2)c(=S)[nH]1 result_type=growth quantitative_readout=97.8
compound=CN(C)CCC(=O)c1c[nH]c2ccccc12 result_type=growth quantitative_readout=111
compound=O=C(/C(=C/c1ccccc1)CBr)c1ccccc1 result_type=growth quantitative_readout=82.1

Given item Cc1cc(NCCCN(C)C)c2ccc3c(ccc4c(NCCCN(C)C)cc(C)nc43)c2n1 , the value recorded as its growth is -34.1

Given item Cc1c2oc3c(C)ccc(C(=O)N[C@@H]4C(=O)N[C@H](C(C)C)C(=O)N5CCC[C@H]5C(=O)N(C)CC(=O)N(C)[C@@H](C(C)C)C(=O)O[C@H]4C)c3nc-2c(C(=O)N[C@@H]2C(=O)N[C@H](C(C)C)C(=O)N3CCC[C@H]3C(=O)N(C)CC(=O)N(C)[C@@H](C(C)C)C(=O)O[C@H]2C)c(N)c1=O (I: [aThr][dV]P[Sar][NMeV] / II: [aThr][dV]P[Sar][NMeV]; ester I:1-I:C, II:1-II:C; linker I:N-II:N via Actinocin(9to1)) , the value recorded as its growth is -11

Given item Nc1ccc2cc(Br)c3ccccc3c2c1 , the value recorded as its growth is 31.3

Data provenance: PubChem BioAssay (NCI)
